Overview of recorded IC50 for various compounds
# System tested: IDH1-R132H recombinant protein (Homo sapiens (Human), UniProt O75874, R132H)
# Sequence (O75874 whole entry R132H): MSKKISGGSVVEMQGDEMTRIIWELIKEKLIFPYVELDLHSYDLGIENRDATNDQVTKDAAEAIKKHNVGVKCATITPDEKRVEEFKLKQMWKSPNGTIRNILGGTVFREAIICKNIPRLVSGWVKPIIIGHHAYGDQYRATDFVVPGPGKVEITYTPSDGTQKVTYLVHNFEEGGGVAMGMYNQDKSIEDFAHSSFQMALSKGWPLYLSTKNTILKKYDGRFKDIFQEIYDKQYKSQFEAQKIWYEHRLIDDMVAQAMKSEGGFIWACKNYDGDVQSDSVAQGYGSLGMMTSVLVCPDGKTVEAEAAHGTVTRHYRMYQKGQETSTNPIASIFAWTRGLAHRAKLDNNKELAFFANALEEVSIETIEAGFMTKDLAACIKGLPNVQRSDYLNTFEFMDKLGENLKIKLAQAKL
# Method: IDH1-R132H enzymatic assay
# Format: biochemical
# Test conditions: inhibition of NADPH consumption, diaphorase/resazurin readout; read-out: Enzyme IDH1 R132H Range IC50

Example results:
Cc1cc(N[C@@H](C)c2cc3cc(Cl)ccc3[nH]c2=O)ncc1C#N | < 100 nM
Cc1ccnc(NCc2cc3cc(Cl)ccc3[nH]c2=O)c1 | 1000 to 10000 nM
N#Cc1ccc(NCc2cc3cc(Cl)ccc3[nH]c2=O)nc1N1CCOC1=O | > 10000 nM
O=c1[nH]c2ccc(Cl)cc2cc1CNc1ccc(Cl)cn1 | 1000 to 10000 nM
C[C@H](Nc1nccc(-c2ccnn2C2CCCCO2)c1F)c1cc2cc(Cl)ccc2[nH]c1=O (some centres unmarked) | > 10000 nM
COc1nc(NCc2cc3cc(Cl)ccc3[nH]c2=O)ccc1C#N | > 10000 nM

Input: Provide one value: measured IC50 of "Cc1c(N2CCOC2=O)ccnc1N[C@@H](C)c1cc2cc(Cl)ccc2[nH]c1=O"
Output: 100 to 1000 nM

Input: Provide one value: measured IC50 of CC(Nc1cc(N2C(=O)OC[C@@H]2C(C)C)ccn1)c1cc2cc(Cl)ccc2[nH]c1=O (some centres unmarked)
Output: 100 to 1000 nM

====

Overview of recorded IC50 for various molecules
# System tested: IDH1-R132H recombinant protein (Homo sapiens (Human), UniProt O75874, R132H)
# Method: IDH1-R132H enzymatic assay
# Assay type: biochemical
# Test conditions: inhibition of NADPH consumption, diaphorase/resazurin readout; read-out: Enzyme IDH1 R132H Range IC50

N#Cc1ccc(NCc2cc3cc(Cl)ccc3[nH]c2=O)nc1 | 100 to 1000 nM

Could you now look at the following molecule, please?
Input: Provide one value: measured IC50 of "C[C@H](Nc1cc(F)cc(N2CCOC2=O)n1)c1cc2cc(Cl)ccc2[nH]c1=O"
Output: 1000 to 10000 nM

====

# System tested: IDH1-R132H recombinant protein (Homo sapiens (Human), UniProt O75874, R132H)
# Method: IDH1-R132H enzymatic assay
# Assay type: biochemical
# Method: Assays were performed in a 384-well black plate. […] After the plate was centrifuged briefly, an aliquot of 10 μL of 2 mM α-ketoglutarate and 20 μM NADPH solution prepared in assay buffer was then added to each well and the reaction was maintained at 25° C. for 45 minutes. […] The IC50 of a given compound was calculated by fitting the dose response curve of inhibition of NADPH consumption at a given concentration with the four parameter logistic equation.
pIC50: −log10 of the molar value.
Endpoint: pIC50

Input: Provide one value: measured pIC50 of COc1cc2[nH]c(=O)c([C@H](C)Nc3cc(OC)c(C#N)cn3)cc2cc1Cl [Compound I-25]
Output: > 7.00

====

# System tested: IDH1-R132H recombinant protein (Homo sapiens (Human), UniProt O75874, R132H)
# Method: IDH1-R132H enzymatic assay
# Assay type: biochemical
# Test conditions: inhibition of NADPH consumption, diaphorase/resazurin readout; read-out: Enzyme IDH1 R132H Range IC50
pIC50: −log10 of the molar value.
Endpoint: pIC50

COc1ccc2[nH]c(=O)c(CNc3ccc(C#N)cn3)cc2c1 | 5.00 to 6.00
COc1nc(C#N)ccc1NCc1cc2cc(Cl)ccc2[nH]c1=O | > 7.00
Cc1nc(N[C@@H](C)c2cc3cc(Cl)c(OCc4ccccn4)cc3[nH]c2=O)ccc1C#N | > 7.00
Cc1c(-c2ccnc(N[C@@H](C)c3cc4cc(Cl)ccc4[nH]c3=O)c2F)cnn1C | 5.00 to 6.00
CC(C)[C@H]1COC(=O)N1c1cccc(N[C@H](C)c2cc3cc(Cl)ccc3[nH]c2=O)n1 | < 5.00

Input: Provide one value: measured pIC50 of "COc1cc(N[C@@H](C)c2cc3cc(Cl)ccc3n(C)c2=O)ncc1C#N"
Output: 5.00 to 6.00

Input: Provide one value: measured pIC50 of "Cc1cc(-c2ccnc(N[C@@H](C)c3cc4cc(Cl)ccc4[nH]c3=O)c2F)n(C)n1"
Output: 5.00 to 6.00

Input: Provide one value: measured pIC50 of "Cc1nc(NCc2cc3cc(Cl)c(OCCN4CCN(S(C)(=O)=O)CC4)cc3[nH]c2=O)ccc1C#N"
Output: > 7.00

Input: Provide one value: measured pIC50 of "CC(C)Cn1nccc1-c1ccnc(N[C@@H](C)c2cc3cc(Cl)ccc3[nH]c2=O)c1"
Output: 5.00 to 6.00

Input: Provide one value: measured pIC50 of "C[C@H](Nc1nccc(-c2cccn2C)c1F)c1cc2cc(Cl)ccc2[nH]c1=O"
Output: 5.00 to 6.00

Input: Provide one value: measured pIC50 of "Cc1cc(NCc2cc3cc(Cl)ccc3[nH]c2=O)ncc1C#N"
Output: 6.00 to 7.00

Input: Provide one value: measured pIC50 of "CC(C)[C@H]1COC(=O)N1c1cccc(N[C@@H](C)c2cc3cc(Cl)ccc3[nH]c2=O)n1"
Output: 6.00 to 7.00

Input: Provide one value: measured pIC50 of "C[C@H](Nc1nccc(NCCO)c1F)c1cc2cc(Cl)ccc2[nH]c1=O"
Output: 5.00 to 6.00

Input: Provide one value: measured pIC50 of "CC(=O)Nc1ccnc(N[C@@H](C)c2cc3cc(Cl)ccc3[nH]c2=O)c1F"
Output: > 7.00

Input: Provide one value: measured pIC50 of "Cc1nc(N[C@@H](C)c2cc3cc(Cl)c(F)cc3[nH]c2=O)ccc1C#N"
Output: > 7.00

Input: Provide one value: measured pIC50 of "C[C@H](Nc1nccc(N2CCOC2=O)c1F)c1cc2cc(Cl)ccc2[nH]c1=O"
Output: > 7.00

Input: Provide one value: measured pIC50 of "Cc1cc(-c2ccnc(N[C@@H](C)c3cc4cc(Cl)ccc4[nH]c3=O)c2)n(C)n1"
Output: 5.00 to 6.00

Input: Provide one value: measured pIC50 of "C[C@H](Nc1cc(-c2ccnn2C)ccn1)c1cc2cc(Cl)ccc2[nH]c1=O"
Output: 5.00 to 6.00

Input: Provide one value: measured pIC50 of "COc1cc2[nH]c(=O)c(CNc3ccc(C#N)c(C)n3)cc2cc1Cl"
Output: > 7.00

Input: Provide one value: measured pIC50 of "Cc1c(-c2ccnc(N[C@@H](C)c3cc4cc(Cl)ccc4[nH]c3=O)c2)cnn1C"
Output: 6.00 to 7.00

Input: Provide one value: measured pIC50 of "CC(C)c1cccnc1NCc1cc2cc(Cl)ccc2[nH]c1=O"
Output: 6.00 to 7.00

Input: Provide one value: measured pIC50 of "COc1nc(C#N)ccc1N[C@@H](C)c1cc2cc(Cl)ccc2[nH]c1=O"
Output: > 7.00

Input: Provide one value: measured pIC50 of Cc1nc(NC(C)c2cc3cc(Cl)ccc3[nH]c2=O)ccc1C#N (stereo not drawn)
Output: 6.00 to 7.00

Input: Provide one value: measured pIC50 of "N#Cc1ccnc(NCc2cc3cc(Cl)ccc3[nH]c2=O)c1"
Output: 5.00 to 6.00

Input: Provide one value: measured pIC50 of "O=c1[nH]c2ccc(Cl)cc2cc1CNc1ccc(C(F)(F)F)cn1"
Output: < 5.00

Input: Provide one value: measured pIC50 of C[C@H](Nc1cc(-c2ccnn2C2CCCCO2)ccn1)c1cc2cc(Cl)ccc2[nH]c1=O (stereo partly drawn)
Output: 5.00 to 6.00

Input: Provide one value: measured pIC50 of "Cc1cc(N2CCOC2=O)cc(N[C@@H](C)c2cc3cc(Cl)ccc3[nH]c2=O)n1"
Output: 6.00 to 7.00

Input: Provide one value: measured pIC50 of Cc1nc(NC(C)c2cc3cc(Cl)c(OCC4CC(F)(F)C4)cc3[nH]c2=O)ccc1C#N (stereo not drawn)
Output: > 7.00

Input: Provide one value: measured pIC50 of "C[C@H](Nc1cccc(N2CCCS2(=O)=O)n1)c1cc2cc(Cl)ccc2[nH]c1=O"
Output: 5.00 to 6.00

====

# System tested: IDH1-R132C recombinant protein (Homo sapiens (Human), UniProt O75874, R132C)
# Sequence (O75874 whole entry R132C): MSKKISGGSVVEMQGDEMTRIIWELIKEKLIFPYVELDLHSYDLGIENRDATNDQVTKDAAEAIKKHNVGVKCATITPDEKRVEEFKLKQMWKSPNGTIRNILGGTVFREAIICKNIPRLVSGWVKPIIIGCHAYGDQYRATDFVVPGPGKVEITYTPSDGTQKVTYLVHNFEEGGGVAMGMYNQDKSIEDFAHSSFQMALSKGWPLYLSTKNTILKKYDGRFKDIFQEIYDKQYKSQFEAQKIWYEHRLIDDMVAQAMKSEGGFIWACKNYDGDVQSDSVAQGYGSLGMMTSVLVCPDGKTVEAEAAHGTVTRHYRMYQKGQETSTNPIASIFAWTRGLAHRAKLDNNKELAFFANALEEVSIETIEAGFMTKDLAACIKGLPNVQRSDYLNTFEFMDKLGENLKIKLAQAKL
# Method: IDH1-R132C enzymatic assay
# Format: biochemical
# Test conditions: inhibition of NADPH consumption, diaphorase/resazurin readout; read-out: Enzyme IDH1 R132C Range IC50
pIC50: −log10 of the molar value.
Endpoint: pIC50

Example results:
CC(C)[C@H]1COC(=O)N1c1cccc(N[C@@H](C)c2cc3cc(Cl)ccc3[nH]c2=O)n1 | 5.00 to 6.00
Cc1nc(NCc2cc3cc(Cl)ccc3[nH]c2=O)ccc1C#N | 6.00 to 7.00
CC(C)n1nccc1-c1ccnc(N[C@@H](C)c2cc3cc(Cl)ccc3[nH]c2=O)c1 | 5.00 to 6.00
COc1cc(N[C@@H](C)c2cc3cc(Cl)ccc3n(C)c2=O)ncc1C#N | 5.00 to 6.00
Cc1nc(N[C@@H](C)c2cc3cc(Cl)ccc3[nH]c2=O)ccc1C#N | 6.00 to 7.00

Input: Provide one value: measured pIC50 of "C[C@H](Nc1nccc(-c2ccnn2C)c1F)c1cc2cc(Cl)ccc2[nH]c1=O"
Output: < 5.00

Input: Provide one value: measured pIC50 of Cc1nc(NC(C)c2cc3cc(Cl)c(OCC4CC(F)(F)C4)cc3[nH]c2=O)ccc1C#N (centres unmarked)
Output: 6.00 to 7.00

Input: Provide one value: measured pIC50 of "Cc1cc(-c2ccnc(N[C@@H](C)c3cc4cc(Cl)ccc4[nH]c3=O)c2F)n(C)n1"
Output: < 5.00
